assay.details: Drug uptake in rat lung at 0.4 mg/kg, it at 7 hrs
Type: ADME, organism-based
test.context: inhaled or intranasal, read-out: Drug uptake
# maps each entry to its concentration at 7 h
readout.label: concentration at 7 h (nM)

• Cc1ncc(C(=O)NCc2ccccc2N2CCN(C)CC2)cc1NC(=O)c1cnn2cc(-c3ccnn3C)ccc12 = 3950
• CN1CCN(c2ccccc2CNC(=O)c2ccc(F)c(NC(=O)c3cnn4cc(-c5ccnn5C)ccc34)c2)CC1 = 221
• CN1CCN(c2ccccc2CNC(=O)c2ccc(F)c(NC(=O)c3cnc4cc(-c5ccnn5C)ccn34)c2)CC1 = 687

###

assay.details: Oral bioavailability in it dosed rat
Type: ADME, organism-based
test.context: in vivo
readout.label: bioavailability (%)

* Cc1ncc(C(=O)NCCN2CCCC2(C)C)cc1NC(=O)c1cnn2cc(-c3cnn(C)c3)ccc12 | 90

###

assay.details: Half life in rat
Assay type: ADME
test.context: in vivo
readout.label: half-life (h)

- Cc1ncc(C(=O)NCCN2CCCC2(C)C)cc1NC(=O)c1cnn2cc(-c3cnn(C)c3)ccc12: 14

###

assay.details: Drug uptake in blood of rat monocrotaline model of pulmonary arterial hypertension at 0.03 mg/kg, it
Assay type: ADME, organism-based
test.context: in vivo, inhaled_or_intranasal, read-out: Drug uptake
readout.label: concentration (nM)

* Cc1ncc(C(=O)NCCN2CCCC2(C)C)cc1NC(=O)c1cnn2cc(-c3cnn(C)c3)ccc12 | 750

###

assay.details: Drug uptake in blood of rat monocrotaline model of pulmonary arterial hypertension at 0.1 mg/kg, it
Assay type: ADME, organism-based
test.context: in vivo, inhaled_or_intranasal, read-out: Drug uptake
readout.label: concentration (nM)

• Cc1ncc(C(=O)NCCN2CCCC2(C)C)cc1NC(=O)c1cnn2cc(-c3cnn(C)c3)ccc12 = 1900
